Value source: ChEMBL document CHEMBL1134462

assay: Relative dissociation constant evaluated against mouse Ribonucleotide Reductase (RR)
recorded-metric: Relative Kd

entry-smiles	recorded-metric	experimental-result
CC(=O)N[C@@H](Cc1ccccc1)C(=O)N[C@H](C(=O)N[C@@H](CC(C)C)C(=O)N[C@@H](CC(=O)O)C(=O)N[C@@H](C)C(=O)N[C@@H](CC(=O)O)C(=O)N[C@H](C(=O)O)c1ccccc1)[C@H](C)O	Relative Kd	24

1 = CC(C)C[C@H](NC(=O)[C@@H](NC(=O)[C@H](Cc1ccccc1)NC(=O)Cc1ccc([N+](=O)[O-])cc1)[C@H](C)O)C(=O)N[C@@H](CC(=O)O)C(=O)N[C@@H](C)C(=O)N[C@@H](CC(=O)O)C(=O)N[C@@H](Cc1ccccc1)C(=O)O
2 = CC(=O)N[C@@H](Cc1ccccc1)C(=O)N[C@H](C(=O)N[C@@H](CC(C)C)C(=O)N[C@@H](CC(=O)O)C(=O)N[C@@H](C)C(=O)N[C@@H](CC(=O)O)C(=O)N[C@@H](Cc1ccc(Cl)cc1)C(=O)O)[C@H](C)O
Request: Compare 1 and 2 and name the one whose reported Relative Kd is smaller. Give the label under which the chosen entry appears.
Result: 1
(1: 0.8, 2: 3.1)
